B1: LINE1-full (parent)
chain: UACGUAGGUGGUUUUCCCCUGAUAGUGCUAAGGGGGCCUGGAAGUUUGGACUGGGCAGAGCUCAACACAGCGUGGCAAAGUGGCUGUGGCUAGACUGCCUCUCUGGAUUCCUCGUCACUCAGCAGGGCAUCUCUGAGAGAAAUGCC

Variants of: B1
assay-remarks: self-cleavage, relative activity (ratio to wild type); higher = more cleavage; in vitro, sequencing; the parent is a self-cleaving ribozyme
experimental-readout: self-cleavage

Query block: Provide only the value of recorded self-cleavage for G82A U102C
Result block: 1.57

Query block: Provide only the value of recorded self-cleavage for U9C C90G
Result block: 0.09

Query block: Provide only the value of recorded self-cleavage for U13C A124C
Result block: 1.67

Query block: Provide only the value of recorded self-cleavage for G48A U81C
Result block: 1.14

Query block: Provide only the value of recorded self-cleavage for U108C U132A
Result block: 2.04

Query block: Provide only the value of recorded self-cleavage for U39G U143C
Result block: 1.81

Query block: Provide only the value of recorded self-cleavage for A43G A117G
Result block: 0.71

Query block: Provide only the value of recorded self-cleavage for A2G A141U
Result block: 0.24

Query block: Provide only the value of recorded self-cleavage for A6G U29C
Result block: 0.74

Query block: Provide only the value of recorded self-cleavage for U81C G88A
Result block: 0.12

Query block: Provide only the value of recorded self-cleavage for G34A A92G
Result block: 0.08

Query block: Provide only the value of recorded self-cleavage for G89C U130C
Result block: 0.09

Query block: Provide only the value of recorded self-cleavage for U26C U47C
Result block: 1.88

Query block: Provide only the value of recorded self-cleavage for U13A U143C
Result block: 1.51

Query block: Provide only the value of recorded self-cleavage for A79G U102A
Result block: 1.12

Query block: Provide only the value of recorded self-cleavage for A22U A138G
Result block: 1.09

Query block: Provide only the value of recorded self-cleavage for U1C U119A
Result block: 1.47

Query block: Provide only the value of recorded self-cleavage for G54A U130C
Result block: 0.9

Query block: Provide only the value of recorded self-cleavage for A67C A77G
Result block: 0.22

Query block: Provide only the value of recorded self-cleavage for A24G G74A
Result block: 0.93

Query block: Provide only the value of recorded self-cleavage for G25U U119A
Result block: 1.69

Query block: Provide only the value of recorded self-cleavage for G33U A79G
Result block: 1.51

Query block: Provide only the value of recorded self-cleavage for A57G A140G
Result block: 0.91

Query block: Provide only the value of recorded self-cleavage for U46C U143A
Result block: 1.44

Query block: Provide only the value of recorded self-cleavage for C95U U96C
Result block: 0.07

Query block: Provide only the value of recorded self-cleavage for U20C A22U
Result block: 1.12

Query block: Provide only the value of recorded self-cleavage for U62C U119C
Result block: 0.07

Query block: Provide only the value of recorded self-cleavage for U1C A57G
Result block: 0.56

Query block: Provide only the value of recorded self-cleavage for G127A U132C
Result block: 0.78

Query block: Provide only the value of recorded self-cleavage for G74A U100A
Result block: 0.7

Query block: Provide only the value of recorded self-cleavage for U100C U109A
Result block: 1.77

Query block: Provide only the value of recorded self-cleavage for A2G U26C
Result block: 0.88

Query block: Provide only the value of recorded self-cleavage for G36C U104C
Result block: 1.87

Query block: Provide only the value of recorded self-cleavage for A59U G75A
Result block: 0.51

Query block: Provide only the value of recorded self-cleavage for A30G A67G
Result block: 0.51

Query block: Provide only the value of recorded self-cleavage for U20C U62C
Result block: 0.1

Query block: Provide only the value of recorded self-cleavage for G8A A124G
Result block: 1.04
